system: CSNK1G3; conditions: concentration: 1 μM, replicates: in singlicate; n = 1;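 note: KINOMEscan kinase panel screen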
property measured: %Inh (%)
Number in %, nothing else.

[[record]]
compound = "Cn1cc(-c2ccc3c(c2)CCN3C(=O)Cc2cc(F)cc(F)c2F)c2c(N)ncnc21"
observed_result = 18


Input: Given the compound c1ccc(Oc2ccc(Nc3ccnc4cc(-c5ccc(CN6CCCCC6)o5)ccc34)cc2)nc1 , what is its reported %Inh?
Output: 3

Input: State the recorded %Inh for this entry: CC(C)NCC(Cc1ccccc1)NC(=O)c1cc(Br)c(-c2ccnc3[nH]ccc23)s1.Cl.Cl (stereo not drawn)
Output: 29

Input: Please look up its %Inh: N#CC1(c2cccc(C(=O)Nc3cccc(Oc4ccc5nc(NC(=O)C6CC6)sc5n4)c3)c2)CC1
Output: 0

Input: Which %Inh value is on record for Nc1ncnc2scc(-c3ccc(NC(=O)Cc4cc(F)ccc4F)cc3)c12.O=C(O)C(F)(F)F ?
Output: 40

Input: // lookup %Inh for CNc1nccc(-c2ccc3c(N)n[nH]c3c2)n1
Output: 33

Input: Value lookup for %Inh; key = O=C(Nc1n[nH]c2cc(-c3cccs3)ccc12)C1CC1
Output: 0

Input: Need %Inh, item COc1cccc(CC(=O)N2CCc3cc(-c4cn(C)c5ncnc(N)c45)ccc32)c1
Output: 29

Input: May I ask what %Inh has been recorded for Cl.O=C(Nc1ccc(Oc2ccc3[nH]c(NC(=O)c4ccco4)nc3c2)cc1)Nc1cc(C(F)(F)F)ccc1F ?
Output: 7

Input: Any idea what %Inh was measured for Nc1cccc(-c2ccc3c(N)n[nH]c3c2)c1 ?
Output: 18

Input: Which value of %Inh has been reported for CCn1cnc2c(NCc3ccccc3)ncnc21 in the records?
Output: 0

Input: Bench note: what %Inh did Cc1ccccc1CC(=O)N1CCc2cc(-c3cn(C)c4ncnc(N)c34)ccc21 show?
Output: 17

* * *

test system: TLK1; details: concentration: 1 μM, replicates: in singlicate; n = 1
property measured: %Inh (%)
Number in %, nothing else.

// below: answered molecules
[[record]]
record_smiles = "CNc1nccc(-c2ccc3c(N)n[nH]c3c2)n1"
assay_target = "TLK1"
unit_spec = "%"
observed_result = 8

[[record]]
record_smiles = "CC(C)(C)c1ccc(C(=O)Nc2cn3cc(-n4ccnc4)ccc3n2)cc1"
assay_target = "TLK1"
unit_spec = "%"
observed_result = 4


Input: Given the molecule COc1ccc(C)c(Nc2ccnc(Nc3ccc(-c4cnc[nH]4)cc3)n2)c1.Cl , what is its reported %Inh?
Output: 0

Input: Dear colleague, I am looking for the recorded %Inh of the following molecule: CN(c1ccc(NC(=O)N2CCN(CCCN3CCOCC3)CC2)cc1)c1ccnc(Nc2ccc(CS(C)(=O)=O)cc2)n1.Cl
Output: 2

Input: I would be grateful if you could share the reported %Inh for CN(c1ccc(F)c(NC(=O)c2cccc(OC(C)(C)C#N)c2Cl)c1)c1ccc2nc(NC(=O)C3CC3)sc2n1 .
Output: 2

Input: For the molecule shown here, Cc1ccc(NC(=O)c2ccc(Cl)c(Cl)c2)cc1-c1ccc(C(=O)Nc2ccncc2)cc1 , give the reported %Inh.
Output: 8

Input: Consider the molecule Cc1ccc(O)cc1Nc1ccnc2cc(-c3ccc(CN4CCCCC4)o3)ccc12 and give its measured %Inh.
Output: 23

Input: // %Inh lookup, key: Fc1cc(Cl)ccc1Nc1ccnc2cc(-c3ccc(CN4CCSCC4)o3)ccc12
Output: 0

Input: Given the molecule c1ccc(Oc2ccc(Nc3ccnc4cc(-c5ccc(CN6CCCCC6)o5)ccc34)cc2)nc1 , what is its reported %Inh?
Output: 0

Input: What measured %Inh goes with CCn1c(-c2nonc2N)nc2c(-c3ccccc3)ncc(OCCCN)c21.O=C(O)C(F)(F)F.O=C(O)C(F)(F)F ?
Output: 1

Input: Look up %Inh: COc1ccc(NC(=O)c2ccoc2)cc1-c1ccc(C(=O)NCC2CC2)cc1
Output: 2

Input: Please give the measured %Inh for this molecule: COC(=O)Nc1nc2cc(Oc3ccc(NC(=O)Nc4cccc(SC)c4)cc3)ccc2[nH]1.Cl
Output: 0

Input: What %Inh value was documented for this molecule, O=C(Nc1c(F)cccc1F)c1cc(C(=O)c2ccccc2F)c[nH]1 ?
Output: 0

Input: Using the record for COC(=O)Nc1nc2ccc(Oc3ccc(NC(=O)Nc4cc(C(F)(F)F)ccc4F)cc3)cc2[nH]1.Cl , report its %Inh.
Output: 7

Input: %Inh for COC(=O)Nc1nc2ccc(Oc3ccc(CC(=O)Nc4cc(C(F)(F)F)ccc4F)cc3)cc2[nH]1 ?
Output: 14

Input: Data request, read-out %Inh, for CN(c1ccc(NC(=O)Nc2cccc(Cl)c2)cc1)c1ccnc(N)n1.Cl
Output: 0

Input: Which measured %Inh value corresponds to CCNc1nccc(-c2c(-c3ccc(F)cc3)ncn2C2CCN(C)CC2)n1 ?
Output: 17

* * *

test system: SNARK; construct: gene NUAK2; conditions: concentration: 1 μM, replicates: in singlicate; n = 1
Parameter: %Inh. Scope: all listed entries.
The reply should be a number in %, with the unit left off.

The following compounds have reported results that may help.
[[record]]
compound = "COc1ccc(C2=C(Nc3cccc(O)c3)C(=O)NC2=O)cc1"
observed_result = 0

[[record]]
compound = "Cl.Cl.NC(CNC(=O)c1cc(Br)c(-c2ccnc3[nH]ccc23)s1)c1ccccc1 (centres unmarked)"
observed_result = 74

[[record]]
compound = "Cc1cc(-c2c(-c3ccc(F)cc3)ncn2CCCN2CCOCC2)nc(N)n1"
observed_result = 0

[[record]]
compound = "Nc1cccc(-c2ccc3c(N)n[nH]c3c2)c1"
observed_result = 22


Turning now to a further compound:
Input: Any idea what %Inh came out for Fc1cc(Cl)ccc1Nc1ccnc2cc(-c3ccc(CN4CCOCC4)o3)ccc12 on SNARK?
Output: 0

* * *

system: AKT1; conditions: concentration: 1 μM, replicates: in singlicate; n = 1
property measured: %Inh (%)
# number only, unit % dropped from output

// known answers, use as guide
[[record]]
molecule = "Cc1cc(-c2c(-c3ccc(F)cc3)ncn2CCCN2CCOCC2)nc(N)n1"
observed_result = 16

[[record]]
molecule = "CCn1cnc2c(NCc3ccccc3)ncnc21"
observed_result = 0

[[record]]
molecule = "O=C(Nc1c(F)cccc1F)c1cc(C(=O)c2ccccc2F)c[nH]1"
observed_result = 0


Input: // fetch AKT1 %Inh for COc1cc(Nc2nccc(N3CCC(NC(=O)Nc4ccc5c(c4)OCO5)C3)n2)cc(OC)c1OC (centres unmarked)
Output: 0

Input: // fetch AKT1 %Inh for O=C(Nc1n[nH]c2nc(-c3ccccc3O)ccc12)C1CC1
Output: 0

* * *

test system: EPHB3; settings: concentration: 1 μM, replicates: in singlicate; n = 1
Label T when %Inh >= 5%; otherwise F.

[[record]]
record_smiles = "Cc1ccc(NC(=O)c2ccc(Cl)c(Cl)c2)cc1-c1ccc(C(=O)Nc2ccncc2)cc1"
label_class = "T"


Input: # check: %Inh of Cn1cc(-c2cnc(N)c3c(-c4ccc5c(c4)CCN5C(=O)Cc4ccccc4)csc23)cn1 is greater than or equal to 5%
Output: F

* * *

The following molecules are listed with their measured %Inh values.
system: SRPK1; details: concentration: 1 μM, replicates: in singlicate; n = 1
Supply the numeric figure in %, leaving out any unit text.

Input: Name the recorded %Inh for Cc1ccc(NC(=O)c2ccc(Cl)c(Cl)c2)cc1-c1ccc(C(=O)Nc2ccncc2)cc1 .
Output: 34

Input: Name the recorded %Inh for Cl.O=C(Nc1ccc(Oc2ccc3[nH]c(NC(=O)c4ccco4)nc3c2)cc1)Nc1cc(C(F)(F)F)ccc1F .
Output: 51

Input: For the molecule shown here, COc1cccc(-c2nc(-c3ccccc3)[nH]c2-c2ccncc2)c1 , give the reported %Inh.
Output: 25

Input: Fill in: %Inh of Nc1cccc(-c2ccc3c(N)n[nH]c3c2)c1 is ___
Output: 54

Input: // query %Inh value for entry O=C(Nc1n[nH]c2cc(-c3cccs3)ccc12)C1CC1
Output: 44

* * *

test system: LCK; details: concentration: 1 μM, replicates: in singlicate; n = 1
property measured: %Inh (%)
Only the number, expressed in %, is required.

Before answering, review these 3 worked examples.
[[record]]
compound = "CCNC(=O)/C=C/c1n[nH]c2cc(Sc3ccccc3C(=O)NC)ccc12"
observed_result = 11

[[record]]
compound = "Cc1ccccc1CC(=O)N1CCc2cc(-c3cn(C)c4ncnc(N)c34)ccc21"
observed_result = 30

[[record]]
compound = "COc1ccc(C)c(Nc2ccnc(Nc3ccc(-c4cnc[nH]4)cc3)n2)c1.Cl"
observed_result = 75


Input: Which %Inh value belongs to CN(C)CCNS(=O)(=O)c1ccc(-c2ccnc3[nH]ccc23)cc1 ?
Output: 23

Input: Field request: %Inh | item: COc1cccc2c(-c3ccncc3)c(-c3ccc(F)cc3)nn12
Output: 23

Input: Could you tell me which %Inh is on file for COc1cc(Nc2nccc(N3CCC(NS(=O)(=O)c4ccc(NC(C)=O)cc4)CC3)n2)cc(OC)c1OC ?
Output: 18

Input: Name the recorded %Inh for O=C(Nc1c(F)cccc1F)c1cc(C(=O)c2ccccc2F)c[nH]1 .
Output: 8

Input: Fill in the blank: the reported %Inh of Cl.Cl.NC(CNC(=O)c1cc(Br)c(-c2ccnc3[nH]ccc23)s1)c1ccccc1 (stereo not drawn) is ____.
Output: 3

Input: // %Inh lookup, key: Cc1cccc(Nc2nc(N[C@H]3CCCC[C@H]3N)ncc2C(N)=O)c1.Cl
Output: 47

Input: What does the record list as %Inh for CN(c1ccc(NC(=O)Nc2cccc(Cl)c2)cc1)c1ccnc(N)n1.Cl ?
Output: 7

Input: Endpoint output: %Inh of COC(=O)Nc1nc2ccc(Oc3ccc(NC(=O)Nc4cc(C(F)(F)F)ccc4F)cc3)cc2[nH]1.Cl . Value?
Output: 99.3

Input: Request the reported %Inh associated with CCn1cnc2c(NCc3ccccc3)ncnc21
Output: 0

Input: # query: %Inh of entry COc1cc(Nc2ccnc3cc(-c4ccncc4)ccc23)cc(OC)c1OC.Cl
Output: 98.6

Input: Name the recorded %Inh for COC(=O)Nc1nc2cc(Oc3ccc(NC(=O)Nc4cccc(SC)c4)cc3)ccc2[nH]1.Cl .
Output: 68

Input: What value of measured %Inh is listed for NCCC(NC(=O)c1cc(Br)c(-c2ccnc3[nH]ccc23)s1)c1ccccc1.O=C(O)C(F)(F)F.O=C(O)C(F)(F)F (stereo not drawn) ?
Output: 12

Input: What does the record list as %Inh for CN(c1ccc(NC(=O)N2CCN(CCCN3CCOCC3)CC2)cc1)c1ccnc(Nc2ccc(CS(C)(=O)=O)cc2)n1.Cl ?
Output: 16

Input: Any idea what %Inh was measured for O=C(Nc1n[nH]c2nc(-c3ccccc3)ccc12)C1CC1 ?
Output: 9

Input: Name the recorded %Inh for Cc1ccc(NC(=O)c2ccnc(N3CCCCC3)c2)cc1-c1ccc(C(=O)NCC2CC2)cc1 .
Output: 29

Input: Please look up its %Inh: CN1CCN(Cc2ccc(NC(=O)Nc3ccc(N(C)c4ccnc(Nc5ccc(CS(C)(=O)=O)cc5)n4)cc3)cc2)CC1.Cl
Output: 82

Input: Record request: %Inh value, item Cc1ccc(NC(=O)c2ccc(Cl)c(Cl)c2)cc1-c1ccc(C(=O)Nc2ccncc2)cc1
Output: 91.9

Input: Would you kindly share the measured %Inh for Cc1ccc(O)cc1Nc1ccnc2ccc(C(C)(C)C)cc12 ?
Output: 98.6

Input: Consider the compound CCOc1nccc(-c2c(-c3ccc(F)cc3)ncn2C2CCNCC2)n1 and give its measured %Inh.
Output: 82
